- Species on record: Homo sapiens
- ASSAY PROCEDURE: In vitro inhibition of aggregation of human platelet rich plasma induced by arachidonic acid
- Type: functional
- CONDITION DESCRIPTION: read-out: I50
pIC50: −log10 of the molar value.
MEASUREMENT LABEL: pIC50

Some solved entries appear below for comparison.
[
  {
    "COMPOUND": "C[C@@H](c1ccccc1)[C@H](O)/C=C/[C@@H]1C2CCC(O2)[C@@H]1C/C=C\\C/C=C/C(=O)O (stereo partly drawn)",
    "MEASUREMENT LABEL": "pIC50",
    "VALUE REPORTED": 5.42
  },
  {
    "COMPOUND": "C[C@@H](c1ccccc1)[C@H](O)/C=C/[C@@H]1C2CCC(O2)[C@@H]1C/C=C\\CCCc1nnn[nH]1 (stereo partly drawn)",
    "MEASUREMENT LABEL": "pIC50",
    "VALUE REPORTED": 5.49
  },
  {
    "COMPOUND": "C[C@@H](c1ccc(O)c(I)c1)[C@H](O)/C=C/C1C2CCC(O2)C1C/C=C\\CCCC(=O)O (stereo partly drawn)",
    "MEASUREMENT LABEL": "pIC50",
    "VALUE REPORTED": 6.03
  }
]

I. C[C@@H](c1ccccc1)[C@H](O)/C=C/C1C2CCC(O2)C1C/C=C\CCCC(=O)O (stereo partly drawn)
II. C[C@H](c1ccccc1)[C@H](O)/C=C/C1C2CCC(O2)[C@H]1C/C=C\CCCC(=O)O (stereo partly drawn)
III. CCCCC(C)(C)[C@H](O)/C=C/C1C2CCC(O2)C1C/C=C\CCCC(=O)O (stereo partly drawn)
IV. CC(CC/C=C\C[C@H]1C2CCC(O2)[C@H]1/C=C/[C@@H](O)[C@@H](C)c1ccccc1)C(=O)O (stereo partly drawn)
V. C[C@H](c1ccccc1)[C@H](O)/C=C/C1C2CCC(O2)[C@@H]1C/C=C\CCCC(=O)O (stereo partly drawn)
Hey, quick one: sort these by pIC50, low to high? Your reply should list the labels following the order given in the request.
V, IV, II, III, I
(V: 3.14, IV: 4.60, II: 5.51, III: 5.96, I: 6.19)
